Molecular target: Tyrosine-protein phosphatase non-receptor type 1 (Homo sapiens)
Sequence (P18031 whole entry): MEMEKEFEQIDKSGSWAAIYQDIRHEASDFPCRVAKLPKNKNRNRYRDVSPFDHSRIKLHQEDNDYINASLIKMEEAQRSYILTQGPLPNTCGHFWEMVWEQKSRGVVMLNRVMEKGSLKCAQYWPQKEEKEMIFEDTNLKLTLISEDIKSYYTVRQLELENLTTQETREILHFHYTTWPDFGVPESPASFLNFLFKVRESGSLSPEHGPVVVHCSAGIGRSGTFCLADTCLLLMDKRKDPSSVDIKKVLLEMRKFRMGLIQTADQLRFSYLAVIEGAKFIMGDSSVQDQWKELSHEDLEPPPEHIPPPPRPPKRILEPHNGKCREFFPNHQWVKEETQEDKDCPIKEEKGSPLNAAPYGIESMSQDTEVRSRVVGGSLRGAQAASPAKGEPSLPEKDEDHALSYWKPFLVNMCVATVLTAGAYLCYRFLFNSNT
Experiment: Inhibition of human recombinant PTP1B using p-nitrophenyl phosphate as substrate assessed as p-nitrophenol release after 30 mins
Assay Metric: IC50 (µM)
One number for each entry, in µM.

Some solved entries appear below for comparison.
[
  {
    "Compound": "CCCCCCCCCCCCCCCC(=O)C1=C(O)[C@@H](CO)OC1=O",
    "Assayed Target": "Tyrosine-protein phosphatase non-receptor type 1 (Homo sapiens)",
    "Reported Value": 4
  },
  {
    "Compound": "C=C1CC[C@]2(C(=O)O)CC[C@]3(C)C(=CC[C@@H]4[C@@]5(C)C[C@@H](O)[C@H](O)[C@@](C)(CO)[C@@H]5CC[C@]43C)[C@@H]2[C@H]1C",
    "Assayed Target": "Tyrosine-protein phosphatase non-receptor type 1 (Homo sapiens)",
    "Reported Value": 18
  },
  {
    "Compound": "C[C@@H]1CC[C@]2(C(=O)O)CC[C@]3(C)C(=CC[C@@H]4[C@@]5(C)CC[C@H](O)[C@@](C)(CO)[C@@H]5CC[C@]43C)[C@@H]2[C@]1(C)O",
    "Assayed Target": "Tyrosine-protein phosphatase non-receptor type 1 (Homo sapiens)",
    "Reported Value": 20.1
  },
  {
    "Compound": "C[C@H]1[C@H](C)CC[C@]2(C(=O)O)CC[C@]3(C)C(=CC[C@@H]4[C@@]5(C)C[C@@H](O)[C@H](O)C(C)(C)[C@@H]5CC[C@]43C)[C@H]12",
    "Assayed Target": "Tyrosine-protein phosphatase non-receptor type 1 (Homo sapiens)",
    "Reported Value": 7
  },
  {
    "Compound": "C=C1CC[C@]2(C(=O)O)CC[C@]3(C)C(=CC[C@@H]4[C@@]5(C)CC[C@H](O)[C@@](C)(CO)[C@@H]5CC[C@]43C)[C@@H]2[C@H]1C",
    "Assayed Target": "Tyrosine-protein phosphatase non-receptor type 1 (Homo sapiens)",
    "Reported Value": 6.3
  },
  {
    "Compound": "C=C1CC[C@]2(C(=O)O)CC[C@]3(C)C(=CC[C@@H]4[C@@]5(C)C[C@@H](O)[C@@H](O)[C@@](C)(CO)[C@@H]5CC[C@]43C)[C@@H]2[C@H]1C",
    "Assayed Target": "Tyrosine-protein phosphatase non-receptor type 1 (Homo sapiens)",
    "Reported Value": 17.4
  }
]

*Q* Which value of IC50 has been reported for C[C@H]1[C@H](C)CC[C@]2(C(=O)O)CC[C@]3(C)C(=CC[C@@H]4[C@@]5(C)CC[C@H](O)[C@@](C)(CO)[C@@H]5CC[C@]43C)[C@H]12 in the records?
*A* 7.4

meta.source: ChEMBL document CHEMBL2086257
